# assay.comment: amyloid nucleation score (Sup35N fusion, yeast selection) (log enrichment); library NNK2; higher = more nucleation; inactive = no reads after selection;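 further: zero at mode of non-aggregating sequences after 7 days selection at 30°C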
Definition: the class of an entry is the range in low band (below 0.3), middle band (0.3 to below 3), high band (3 or more) that contains its amyloid nucleation score.

Field: example entries. Status: answers known.
substance=WTHDVWSGSYEWARDGLDVK assigned_category="low band"
substance=LVGHYSDRDYVEYARRDCAG assigned_category="low band"
substance=SIVKLGVYHDLPA assigned_category="middle band"
substance=YVRAGRVNVILCVSENCIGG assigned_category="high band"
substance=IPRCKKW assigned_category="high band"

Class? Entry: HVVLNFCDTVWLMSKAP
high band

Class? Entry: RFCGVVLSHSSD
high band

Class? Entry: LLVGLIASPPGGTGVTLFPT
high band

Class? Entry: TDYQSVVDTVG
low band

Class? Entry: SMNPWYIHWLI
low band

Class? Entry: YMKKSMF
low band

Class? Entry: VRLRASDKCLNV
middle band

Class? Entry: FAQPHGCNKMCFCSLRFQYL
high band

Class? Entry: HWGSVAGDFWGFVVWSRFGR
low band

Class? Entry: RRLFYRRRQHNILLAYWVWY
middle band

Class? Entry: AISPVLC
middle band

Class? Entry: RLKELRQDIPVMPNRQL
middle band

----------
# assay.comment: amyloid nucleation score (Sup35N fusion, yeast selection) (log enrichment); library NNK3; higher = more nucleation; inactive = no reads after selection
quantity: amyloid nucleation score

substance=VWTRTWLLMTCHCNRFKDCS measured=1.67
substance=FIYNVDVHCASSVNIGWGQK measured=2.83
substance=SEMELDLSFSPPYRGLPIIV measured=inactive
substance=YETSVH measured=inactive
substance=LNIFTYMCVMALMCLEKITS measured=1.73

Note to self: amyloid nucleation score recorded for GSHVTKVLTFYSNVWVHFTG was inactive

Note to self: amyloid nucleation score recorded for EDCRSR was inactive

Note to self: amyloid nucleation score recorded for VMFRCN was inactive

Note to self: amyloid nucleation score recorded for YSGKNLVRSTAGGAVKPVC was inactive

----------
# assay.comment: amyloid nucleation score (Sup35N fusion, yeast selection) (log enrichment); library NNK3; higher = more nucleation; inactive = no reads after selection
quantity: amyloid nucleation score

substance=LTWYREDLYVRSWSCYWDQR measured=inactive
substance=GASSIFLIVRSDGSYFSPD measured=inactive
substance=IFTLMINCLE measured=0.809
substance=SRTFVRECKWGFVCRYKVWV measured=inactive
substance=SNYVKKQIALS measured=inactive

# input for lookup
Note to self: amyloid nucleation score recorded for RVVSSGRGNSHTAATGWLWQ was inactive

----------
# assay.comment: amyloid nucleation score (Sup35N fusion, yeast selection) (log enrichment); library NNK2; higher = more nucleation; inactive = no reads after selection
quantity: amyloid nucleation score

Below are worked cases with known answers.
substance=NARITVLGSHPWLCPGKVSV measured=1.06
substance=SNGMRNCKVCEFLLRLYASY measured=-1.15
substance=VCWTNSWVCNSGVLSGVGAA measured=1.41
substance=ASRMPSGVRSFWAKPR measured=0.321
substance=DVSESRSTVDGSDNEGWLTD measured=0.299

Note to self: amyloid nucleation score recorded for AEYIWWMVPVMKELVNEV was 0.362

Note to self: amyloid nucleation score recorded for INVPCFRLKSSVGVISLQGT was 0.205

Note to self: amyloid nucleation score recorded for FVNATVLR was 1.24

Note to self: amyloid nucleation score recorded for IFRSSTLIDLKDLGLTSH was 1.27

Note to self: amyloid nucleation score recorded for HGLLTKLWRPFMHGSV was 0.203

Note to self: amyloid nucleation score recorded for FEGCCWVVGLLRLSG was 8.71
